Molecular target: monoclonal antibody D32.39
surface (amide) = not defined here
Measure name: Normalized Intensity (%)

Reference set, count: 5
{"Binder": "Ac-QFKVVT-{surface (amide)} (reading uncertain; also: C-terminus amide-linked to surface) [QFKVVT, surface-immobilized peptide]", "Measure name": "Normalized Intensity (%)", "Test value": 28}
{"Binder": "Ac-FLRR-{surface (amide)} (reading uncertain) [FLRR, surface-immobilized peptide]", "Measure name": "Normalized Intensity (%)", "Test value": 6}
{"Binder": "Ac-FLRRQFKVVT-{surface (amide)} (reading uncertain; also: C-terminus amide-linked to surface)", "Measure name": "Normalized Intensity (%)", "Test value": 98}
{"Binder": "Ac-LRRQFK-{surface (amide)} (reading uncertain; also: C-terminus amide-linked to surface) [LRRQFK, surface-immobilized peptide]", "Measure name": "Normalized Intensity (%)", "Test value": 12}
{"Binder": "Ac-FKVVT-{surface (amide)} (reading uncertain) [FKVVT, surface-immobilized peptide]", "Measure name": "Normalized Intensity (%)", "Test value": 13}

(A) Ac-RQFK-{surface (amide)} (reading uncertain; also: C-terminus amide-linked to surface) [RQFK, surface-immobilized peptide]
(B) Ac-LRRQFKVVT-{surface (amide)} (reading uncertain; also: C-terminus amide-linked to surface)
(C) Ac-RQFKVV-{surface (amide)} (reading uncertain; also: C-terminus amide-linked to surface) [RQFKVV, surface-immobilized peptide]
(D) Ac-FLRRQFKVV-{surface (amide)} (reading uncertain; also: C-terminus amide-linked to surface)
Please order the records by their reported Normalized Intensity (%), lowest number first. Please list the labels according to the requested order.
A, D, C, B
